- Tested on: CYP3A4
- ASSAY EXPLANATION: clinical
- DETAILS: human, in vivo
READOUT TYPE: AUC(0-inf) (ng·h/mL)
Answer in ng·h/mL, number only, no unit symbol.

Write AUC(0-inf) of Cc1ncc2n1-c1ccc(Cl)cc1C(c1ccccc1F)=NC2 [Midazolam, midazolam, reference compound] ; system used: CYP3A4
56

----------
- ASSAY EXPLANATION: clinical
- DETAILS: human, in vivo, 900 mg, AUC0–tau, MAD 900 mg b.i.d., steady‐state (day 7), n = 6; mean
READOUT TYPE: AUC (µg·h/mL)
Answer in µg·h/mL, number only, no unit symbol.

Entry CN[C@@H]1COc2c(S(=O)(=O)NC(=O)Nc3c4c(cc5c3CCC5)CCC4)cnn2C1 [GDC‐2394] needs its AUC filled in; supply it.
327
